test: High Content Imaging Cell-Based qHTS for Inhibitors of the mTORC1 Signaling Pathway in MEF Cells (AID 2667); conditions: series mostly up to 38.3 µM
Records with an inconclusive call do not appear. Calls of active or inactive are those of the source. Calls follow the shape of the dose curve; as a rule, active = well fitted inhibition curve with a large enough effect; inconclusive = small, poorly fitted or top-dose-only effect, or effect the other way; inactive = no such curve, though single readings can be large or run the other way.
Classes used: Yes for active, No for inactive

>>> class_label("NCCc1ccc(S(=O)(=O)F)cc1")
"No"
>>> class_label("C[C@]12Cc3cn4c(nc3C=C1CCC1C2CC[C@@]2(C)[C@H]1CC[C@@]2(O)C#N)nc1ccccc14 (some centres not stated)")
"No"
>>> class_label("CC(C)NP(=O)(NC(C)C)OP(=O)(NC(C)C)NC(C)C")
"No"
>>> class_label("CCCn1c(=O)c2[nH]c(C3CCCC3)nc2n(CCCOC(=O)c2ccc(S(=O)(=O)F)cc2)c1=O")
"No"
>>> class_label("CC(=O)NBr")
"No"
>>> class_label("N=C(N)c1ccc(CS(=O)(=O)F)cc1")
"No"
>>> class_label("CN1CCc2cccc(Cl)c2CC1")
"No"
>>> class_label("CC(N)Cc1c[nH]c2ccc(OCc3cccs3)cc12 (configuration not stated)")
"Yes"
>>> class_label("CCNC(=O)[C@H]1O[C@@H](n2cnc3c(N)ncnc32)[C@H](O)[C@@H]1O")
"No"
>>> class_label("N[C@@H](Cn1ccc(=O)[nH]c1=O)C(=O)O")
"No"
>>> class_label("C[C@H](Cc1ccc2c(c1)OC(C(=O)O)(C(=O)O)O2)NC[C@H](O)c1cccc(Cl)c1")
"No"
>>> class_label("N#CCCN")
"No"

###

biological target: Nuclear receptor ROR-gamma (Homo sapiens) (UniProt P51449); experiment: qHTS assay for small molecule antagonists of the retinoid-related orphan receptor gamma (ROR-gamma) signaling pathway (AID 651802); conditions: ROR-gamma antagonist cell reporter assay; series mostly up to 92.2 µM; also: nearly all actives have a fitted effect of over 60% in size
Sequence (P51449 whole entry, looked up): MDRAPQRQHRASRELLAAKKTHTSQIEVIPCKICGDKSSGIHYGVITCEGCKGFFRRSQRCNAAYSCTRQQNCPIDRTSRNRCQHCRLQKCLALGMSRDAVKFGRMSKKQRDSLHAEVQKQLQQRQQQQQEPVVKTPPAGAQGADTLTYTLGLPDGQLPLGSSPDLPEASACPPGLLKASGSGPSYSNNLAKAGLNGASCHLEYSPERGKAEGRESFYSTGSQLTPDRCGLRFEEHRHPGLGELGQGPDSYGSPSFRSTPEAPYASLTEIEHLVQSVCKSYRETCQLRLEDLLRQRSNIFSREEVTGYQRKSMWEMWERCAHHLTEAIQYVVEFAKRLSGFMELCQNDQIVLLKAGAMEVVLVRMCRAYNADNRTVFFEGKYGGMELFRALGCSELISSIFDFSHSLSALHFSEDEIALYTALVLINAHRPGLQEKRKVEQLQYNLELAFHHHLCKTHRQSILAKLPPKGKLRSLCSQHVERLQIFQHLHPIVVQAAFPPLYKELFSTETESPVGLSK
Inconclusive results are not listed. The source made the active and inactive calls. Calls follow the shape of the dose curve; as a rule, active = well fitted inhibition curve with a large enough effect; inconclusive = small, poorly fitted or top-dose-only effect; inactive = no such curve, though single readings can be large or run the other way.
Classes used: active, inactive

>>> class_label("O=C(O)C(Cl)(Cl)Cl")
"inactive"
>>> class_label("ClC(Cl)(Cl)Cl")
"inactive"
>>> class_label("CCCCCCCCOC(=O)c1ccccc1C(=O)OCCCCCCCC")
"inactive"
>>> class_label("O=CC=O")
"inactive"
>>> class_label("CCCCCl")
"inactive"
>>> class_label("COc1ccc2c(c1OC)C(=O)OC2C1c2cc3c(cc2CCN1C)OCO3 (stereo unspecified)")
"inactive"
>>> class_label("COC1=CC(=O)O[C@@H](/C=C/c2ccccc2)C1")
"inactive"
>>> class_label("[O]=[Cd]")
"inactive"
>>> class_label("ClCC1CO1 (stereo unspecified)")
"inactive"
>>> class_label("Oc1cc(Cl)c(Cl)cc1Cl")
"active"
>>> class_label("C[C@H]1CC[C@@H]2[C@@H](C)[C@H]3[C@H](C[C@H]4[C@@H]5CC=C6CC(O[C@@H]7O[C@H](CO)[C@H](O)[C@H](O[C@@H]8O[C@H](CO)[C@@H](O)[C@H](O)[C@H]8O)[C@H]7O[C@H]7O[C@@H](C)[C@H](O)[C@@H](O)[C@H]7O)CC[C@]6(C)[C@H]5CC[C@]34C)N2C1 (stereo partly specified)")
"active"
>>> class_label("CC(C)CCON=O")
"inactive"
>>> class_label("C[C@]12CCC(=O)C[C@@H]1CC[C@@H]1[C@@H]2CC[C@]2(C)[C@@H](O)CC[C@@H]12")
"active"
>>> class_label("[Cl-].[Cl-].[Hg+2]")
"active"
>>> class_label("C[C@H]1CCC[C@H](O)CCCCCc2cc(O)cc(O)c2C(=O)O1")
"active"
>>> class_label("O=C/C=C/c1ccccc1")
"inactive"
